target: activated dog MMP13 (dog, UniProt P45452 104-471 (human entry)); assay: cell-based or functional assay
Just a reminder that ties go to False: only IC50, dog fluorogenic peptide assay strictly below 6 nM counts as True.

Worked cases, answers included:
C0101PMP525C04 (VHH, Profile 2 Nanobody) VHH: DVQLVESGGGLVQPGGSLRLSCAGSGSIFSGNAMGWYRQAPGKQRELVAAITSGGVTNYADSVKGRFTISRDNSKNTVYLQMNSLRPEDTAVYYCAADIRYPTGLVGDYWGQGTLVTVSS :: False
C0101PMP519E04 (VHH, Profile 2 Nanobody) VHH: DVQLVESGGGLVQPGGSLRLSCVASGPTFSDYAMGWFRQAPGKEREFVAAISWSGGSTYYADSVKGRFTISRDNSKNTVYLQMNSLRPEDTAVYYCTAARGGGYRASGGPLSEYNYWGQGTLVTVSS :: False
C0101PMP529C12 (VHH, Profile 2 Nanobody; also called C0101529C12) VHH: DVQLVESGGGLVQPGGSLRLSCVASGSIFSINAMGWYRQAPGKQRELVAAISSGGSTYYADSVKGRFTISRDNSKNTVYLQMNSLRPEDTAVYYCNAAVDASRGLPYELYYYWGQGTLVTVSS :: True

Exercise: Could you please tell me whether IC50, dog fluorogenic peptide assay recorded for C0101PMP520B06 (VHH, Profile 2 Nanobody) VHH: DVQLVESGGGLVQPGGSLRLSCAASGRTFSSYAMGWFRQAPGKEREFVAAISWGGGSTYYSDSVKGRFTISRDNSKNTVYLQMNSLRPEDTAVYYCTAALGSTGSGSTPVPEYRYWGQGTLVTVSS is less than 6 nM?
Key: False

Exercise: Could you please tell me whether IC50, dog fluorogenic peptide assay recorded for C0101PMP521F02 (VHH, Profile 2 Nanobody) VHH: DVQLVESGGGLVQPGGSLRLSCVASGLTFSSYAMGWFRQAPGKEREFVAAISWSGGRTYYADSVKGRFTISRDNSKNTVYLQMNSLRPEDTAVYYCTAARGPGSVGPSEEYNYWGQGTLVTVSS is less than 6 nM?
Key: True
